test system: UACC-257 melanoma; assay: NCI-60 one-dose screen, 48 h; conditions: 10 µM
This is part of a sample that, as a whole, favours compounds with a hit. Of some 83,000 tested, about 20% had one in any assay. The source made the active and inactive calls. How the source made its calls: active means growth percent below 10; inactive means the rest.
Possible outcomes: 1 (yes) for active, 0 (no) for inactive

compound: COc1ccc(-c2oncc2-c2cc(OC)c3c(c2)OCO3)cc1
assay.target: UACC-257 melanoma
class: 0 (no)
//
compound: COc1ccc(/C(CS(=O)(=O)c2ccccc2)=N\O)cc1
assay.target: UACC-257 melanoma
class: 0 (no)
//
compound: O=C1CC[C@@H](C(=O)N[C@H]2CSSC[C@@H](C(=O)N/C=C/c3ccc(O)cc3)NC(=O)[C@H](Cc3ccccc3)NC(=O)[C@@H]3CCCN3C(=O)[C@@H]3CCCN3C2=O)N1
assay.target: UACC-257 melanoma
class: 0 (no)
//
compound: CCn1nc(-c2ccc(C(=O)OC)cc2)nc2c(=O)n(C)c(=O)nc1-2
assay.target: UACC-257 melanoma
class: 0 (no)
//
compound: COc1cccc2c1O/C(=C\c1ccc([N+](=O)[O-])s1)C2=O
assay.target: UACC-257 melanoma
class: 0 (no)
//
compound: COc1ccc(CCc2nc3cc(-c4c(C)noc4C)ccc3n2CCN2CCOCC2)cc1
assay.target: UACC-257 melanoma
class: 0 (no)
//
compound: O=C1NN(c2ccccc2)C(c2cccnc2)=N/C1=C\c1cccnc1
assay.target: UACC-257 melanoma
class: 0 (no)
//
compound: Cc1ccc(-n2nnc3c(sc4ccccc43)c2=O)cc1
assay.target: UACC-257 melanoma
class: 0 (no)
//
compound: COc1cc(Cn2c(-c3ccccc3)cc3c2-c2oncc2CC3)cc(OC)c1
assay.target: UACC-257 melanoma
class: 0 (no)
//
compound: COc1cc(OC)cc(-c2n/c(=C\c3c(O)[nH]c4ccc(OC)cc34)cc3c2=Nc2ccccc2-3)c1
assay.target: UACC-257 melanoma
class: 0 (no)
//
compound: Cc1ccc(-c2cc(C(=O)Nc3ccc(S(=O)(=O)N4CCCCC4)cc3)[nH]n2)c(O)c1
assay.target: UACC-257 melanoma
class: 0 (no)
//
compound: c1ccc(C2CCCCC2)c(OCCCCCN2CCNCC2)c1
assay.target: UACC-257 melanoma
class: 0 (no)
//
compound: Cc1ccc2nc3[nH]c(=O)[nH]c(=O)c3c(N)c2c1
assay.target: UACC-257 melanoma
class: 0 (no)
//
compound: CCOC(=O)c1sc(Nc2ncccn2)nc1-c1ccccn1
assay.target: UACC-257 melanoma
class: 0 (no)
//
compound: FC(F)(F)c1ccc(-c2cnc(Br)nc2NC2CCCCCC2)cc1
assay.target: UACC-257 melanoma
class: 1 (yes)
//
compound: CCCCCCCCCCCC(=O)NCCCN(C)C
assay.target: UACC-257 melanoma
class: 0 (no)
//
compound: COc1cc(C2C=C(c3ccc(Cl)c(Cl)c3)N=C3SC(C)=CN32)cc(OC)c1OC (configuration not stated)
assay.target: UACC-257 melanoma
class: 0 (no)
//
compound: C[n+]1c(/C=C/c2c[nH]c3ccccc23)ccc2ccccc21
assay.target: UACC-257 melanoma
class: 0 (no)
//
compound: O=C(Nc1cccc(Cl)c1)OCC(COC(=O)Nc1cccc(Cl)c1)(COC(=O)Nc1cccc(Cl)c1)[N+](=O)[O-]
assay.target: UACC-257 melanoma
class: 0 (no)
//
compound: C=CCN1C(=O)/C(=C\c2ccc3c(c2)CCC3)SC1=S
assay.target: UACC-257 melanoma
class: 0 (no)
//
compound: CCN1CCN(c2nc(NNC(=O)c3cccc(OC)c3)nc(N3CCN(C(c4ccccc4)c4ccccc4)CC3)n2)CC1
assay.target: UACC-257 melanoma
class: 0 (no)
//
compound: CC(C)OP(=O)(O)c1ncc(-c2ccc(C(F)(F)F)cc2)c(NC2CCCCCC2)n1
assay.target: UACC-257 melanoma
class: 0 (no)
//
compound: C(=C\c1nc2ccccc2s1)/c1ccc(N2CCOCC2)s1
assay.target: UACC-257 melanoma
class: 0 (no)
//
compound: CCc1nn2c(-c3cc(OC)c(OC)c(OC)c3)c(-c3cc(OC)c(OC)c(OC)c3)nc2s1
assay.target: UACC-257 melanoma
class: 0 (no)
//
compound: CNCCCNCCCN1C(=O)c2ccc3c4c(ccc(c24)C1=O)C(=O)N(CCCNCc1ccccc1OC)C3=O
assay.target: UACC-257 melanoma
class: 1 (yes)
//
compound: COc1cc(C2=Nc3c/c(=C\c4c(O)[nH]c5ccc(Cl)cc45)ccc3=N2)cc(OC)c1OC
assay.target: UACC-257 melanoma
class: 1 (yes)
//
compound: Cc1ccc(S(=O)(=O)Nc2cccc3[nH]c(C(F)(F)F)nc23)cc1
assay.target: UACC-257 melanoma
class: 0 (no)
